Origin of values: PubChem BioAssay AID743186

# Tested on: Mycobacterium tuberculosis growth, OD600
# assay-overview: Confirmatory dose response, tuberculosis growth inhibitors, OD600 plate reader (AID 743186)
Calls of active or inactive are those of the source. The rule behind the calls is not given here.
Please reply with one of these outcomes: Yes = active, No = inactive

Examples from the recorded data:
[
  {
    "compound": "NC1CCN(c2c(F)cc3c(=O)c(C(=O)O)cn(C4CC4)c3c2Cl)C1 (configuration not stated)",
    "cat": "Yes"
  },
  {
    "compound": "Cc1ccc(C)c(-c2csc(NC(=O)c3cnccn3)n2)c1",
    "cat": "No"
  },
  {
    "compound": "Cc1nnc(NC(=O)c2ccc3ccccc3c2)o1",
    "cat": "Yes"
  }
]

Field: outcome | Entry: COC(=O)COc1ccc2c(=O)c(Oc3ccccc3)c(C)oc2c1
No

Field: outcome | Entry: Brc1c(-c2ccc3c(c2)OCO3)nc2ncccn12
Yes

Field: outcome | Entry: Cc1cccc(C)c1N1C(=O)CC(N2CCSCC2)C1=O (configuration not stated)
No

Field: outcome | Entry: Cc1cc(NC(=O)C2CCCCC2)n(-c2nc3ccccc3[nH]2)n1
No

Field: outcome | Entry: Cc1cc(C)n2nc(S(=O)(=O)Nc3c(Cl)cccc3Cl)nc2n1
Yes

Field: outcome | Entry: Cc1cccc(Cn2ccc(NC(=O)c3ccc4c(c3)OCO4)n2)c1
Yes

Field: outcome | Entry: C=CCn1c(NC(=O)c2ccccc2)nc2ccccc21
No

Field: outcome | Entry: Clc1cccc(CNCCNCc2cccc(Cl)c2)c1
No

Field: outcome | Entry: CCCCN(C/C=C/c1ccccc1OC)Cc1ccccc1
No
